- Test system: PPARg:RXRa 30nM:10nM, anti-RXR (NR concentration 30 nM, RXRa partner concentration 10 nM)
- protocol-notes: PBM binding z-score (relative to random genomic background probes); higher = stronger binding; sequences stand for … in GC…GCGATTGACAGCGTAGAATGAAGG
value-kind: PBM binding z-score
Answer using only a numeral; do not append any unit.

INPUT: Reported PBM binding z-score, sequence TCGAGTAGGTTAGTCGGGGCATTTAGCCAACATA : ____
OUTPUT: 1.17

INPUT: Value lookup for PBM binding z-score; key = TCTTGTAGATCAGCAAGTTAAGAAAGCTGGCCAA
OUTPUT: 2.5

INPUT: Fill in the blank: the reported PBM binding z-score of CCGACTGGGGCAAAGGTTTCCATACTCAGTACGA is ____.
OUTPUT: 8.2

INPUT: // returns reported PBM binding z-score for input ACTATTAGTTGAGATGAGGGCAACCGATAGGTTG
OUTPUT: 0.15

* * *

- Test system: RXRa DBDmut IVT, anti-RXR (DBD mutation: RXRa K156A/R161A, NR concentration 90 nM)
- protocol-notes: PBM binding z-score (relative to random genomic background probes); higher = stronger binding; sequences stand for … in GC…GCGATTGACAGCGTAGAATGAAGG
Please use Met whenever PBM binding z-score is not below 1, and Not met whenever it is.

INPUT: Can TCTTGTAGATCAACAAGAGGTTAAGAAAGATCGA be said to have PBM binding z-score at or above 1?
OUTPUT: Not met

INPUT: Tell me whether PBM binding z-score is at least 1 here: TGAATGAGGTTAAAGATCAGGGAGCGTGGCGTCG
OUTPUT: Not met

INPUT: Does PBM binding z-score meet or surpass 1 for TAACCAAGGTGAAGGTCGTTGATCCCTCTGTAGA ?
OUTPUT: Not met

INPUT: Record GCGACTGGGGCAAAGCAGGTTACCCTAAGGTTGG ; criterion: PBM binding z-score no lower than 1. Met?
OUTPUT: Not met

INPUT: Could you please find out whether TCATATAGGCAAAGGTGAAAGTCGAACGATATGA has PBM binding z-score that meets 1 or exceeds it?
OUTPUT: Not met

INPUT: Textbook exercise: given the entry CCTAGCAGGCCAATCTGGATCACTCAAGGCTTGA , state whether its PBM binding z-score is greater than or equal to 1.
OUTPUT: Not met

INPUT: Check if PBM binding z-score >= 1 (inclusive). Item: ATCTCTAGGTAGAGATAGTTCAGTGAATGCAAAT
OUTPUT: Not met

INPUT: PBM binding z-score >= 1 for CGTCCAAGGTCAGCTGGTCAGTGAAAGCGACGTG ?
OUTPUT: Met

INPUT: Exam item: decide whether the reported PBM binding z-score for GCTATTAGTTGAAAGGGCAACCGCATGATTCTCG is at least 1.
OUTPUT: Not met

INPUT: Has CAAACTAGGTCACCGGAAGGTCCAAGTCCGCATG a recorded PBM binding z-score greater than or equal to 1?
OUTPUT: Met

INPUT: # check: PBM binding z-score of AGAATGAGGTTATACGTAGATCAGGGACGAAAGT is greater than or equal to 1
OUTPUT: Met

INPUT: Could you verify whether the entry TCGTGTAGGTTAGTCGGGGCATTCAGCCAACATA shows PBM binding z-score of no less than 1?
OUTPUT: Met

INPUT: Given TCTCGGAGGACACGAAAGGTCAGAGGTCGACATC , state whether its PBM binding z-score is at least 1.
OUTPUT: Met

INPUT: Confirm if PBM binding z-score reported for the sequence CCTACTGGACCAAAAAGGTCATTGATGCCGATAA is 1 or above.
OUTPUT: Met

INPUT: Tell me whether PBM binding z-score is at least 1 here: CCTGTTAGGTCATGGTCAGCTAATCTACAGTATG
OUTPUT: Met

INPUT: Identify whether the reported PBM binding z-score of the following sequence is 1 or greater: ACTAGCAGGCCAAGTTTTGGTCACTCAAACAAAG
OUTPUT: Not met

INPUT: Textbook exercise: given the entry CAAACTAGGTCACAGAGGTGAAAGTCCGTGCGTA , state whether its PBM binding z-score is greater than or equal to 1.
OUTPUT: Met

INPUT: Item AGAATGAGGTTATCAAAGATCAGGGAAACGCTTG with PBM binding z-score of 1 or above?
OUTPUT: Met

INPUT: Is reported PBM binding z-score greater than or equal to 1 here: CGAACTAGGTCATCCTGGACAGTGAATACATTGA
OUTPUT: Met

INPUT: PBM binding z-score >= 1 for CGCGAAAGGTCGGTTGAGGTGAGTATACGGATAA ?
OUTPUT: Not met

INPUT: # bool: PBM binding z-score of CCGAGCAGGTTATGGGGCATTCAGGCAACGGTGA >= 1
OUTPUT: Not met

INPUT: Kindly determine if PBM binding z-score recorded for AGAATGAGGTTAAGATCGGGGAAACAGAATACAT is above or exactly 1.
OUTPUT: Met

INPUT: Does the sequence CTACCAAGGTGAACAAGATCGTTGATTACTATTC have recorded PBM binding z-score that is 1 or more?
OUTPUT: Not met

src = the supplement of paper PMC6555819
